Target: T1, O14-bS
T1 chain: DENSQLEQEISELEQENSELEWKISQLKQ
Experiment: two-hybrid library CCNG1;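 also: natural log of median RNA to DNA barcode read ratio; higher means stronger binding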
Reported Endpoint: interaction score
Provide a numeric answer; units are not to be included.

Sample answers from the record:
Binder	Reading
DKISQLKQEISELEQENSELEWENSQLEQ [O11-bS]	-2.92
DENSQLEQEISELEQENSELEWKISQLKQ [O14-bS]	-1.18
DKNSQLKQENSELEQEISELEWEISQLEQ [O1-bS]	-0.387

Requested field: interaction score. Item: DEISQLEQKISELKQKNSELKWKNSQLKQ [O12-bS] -2.32
